Data provenance is patent US20110150903A1.

- assayTarget: T1, mFGFR4-Histag (murine, UniProt Q03142 19-362)
- T1 construct: also called murine protein mFGFR4; murine FGF-R4
- T1 sequence (Q03142 other isoform, or with tags, fused parts or gaps): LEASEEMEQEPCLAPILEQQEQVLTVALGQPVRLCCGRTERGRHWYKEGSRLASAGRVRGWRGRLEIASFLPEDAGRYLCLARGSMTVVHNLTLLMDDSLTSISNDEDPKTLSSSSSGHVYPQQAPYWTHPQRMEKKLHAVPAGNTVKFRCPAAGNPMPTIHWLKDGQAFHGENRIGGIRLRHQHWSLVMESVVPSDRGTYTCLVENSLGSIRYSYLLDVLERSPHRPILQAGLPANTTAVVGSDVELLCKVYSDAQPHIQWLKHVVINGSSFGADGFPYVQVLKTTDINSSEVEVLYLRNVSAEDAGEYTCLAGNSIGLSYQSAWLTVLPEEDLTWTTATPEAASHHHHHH
- measurementNotes: SPR (BIAcore 3000)
outcomeMeasure: kon
Please give the number followed by its unit.

binder	kon
anti-FGFR4 antibody clone 33 (human IgG1 format) (antibody, V domains shown, As for clone 8: human IgG1 format from HEK293; also called antibody 33) VH: EVQLLESGGGLVQPGGSLRLSCAASGFTFSTYWMAWVRQAPGKGLEWVSVIGPSGGMTVYADSVKGRFTISRDNSKNTLYLQMNSLRAEDTAVYYCARINSGSSHFDYWGQGTLVTVSS VL: QSVLTQPPSASGTPGQGVTISCSGSSSNIGSNSVNWYQQLPGAAPKLLIYSNNLRPSGVPARFSGSKSGTSASLAISGLRSEDEADYYCAAWDDGLDAYVVFGGGTKLTVLG	1.01e+06 M⁻¹ s⁻¹
anti-FGFR4 antibody clone 36 (human IgG1 format) (antibody, V domains shown, As for clone 8: human IgG1 format from HEK293; also called antibody 36) VH: EVQLLESGGGLVQPGGSLRLSCAASGFTFSHYWMGWVRQAPGKGLEWVSVISPSGGLTIYADSVKGRFTISRDNSKNTLYLQMNSLRAEDTAVYYCARSSGWALDAFDIWGQGTMVTVSS VL: QYELTQPPSASGTPGQRVTISCSGSSSNIGSNIVHWYQQLPGTAPKLLIYGNNQRPSGVPDRFSVSKSGSSASLAISGLQSEDEADYYCASWDDSLKAFYVFGTGTKVTVLG	330000 M⁻¹ s⁻¹

Incoming: What does the record list as kon for anti-FGFR4 antibody clone 8 (human IgG1 format) (antibody, V domains shown, also called antibody 8) VH: EVQLLESGGGLVQPGGSLRLSCAASGFTFSPYWMGWVRQAPGKGLEWVSVIWPSGGTTDYADSVKGRFTISRDNSKNTLYLQMNSLRAEDTAVYYCARVHPAGHNDHWGQGTLVTVSS VL: QSELTQPPSASGTPGQRVTISCSGGYSNMGSNYAHWYQQLPGTAPKLLIYNNNQRPSGVPDRFSGSKSGTSASLAISGLRSEDEADYYCAAWDDSLSGPVFGGGTKLTVLG ?
Outgoing: 1.2e+06 M⁻¹ s⁻¹

Incoming: What do you have for anti-FGFR4 antibody clone 31 (human IgG1 format) (antibody, V domains shown, As for clone 8: human IgG1 format from HEK293; also called antibody 31) VH: EVQLLESGGGLVQPGGSLRLSCAASGFTFSRYFMKWVRQAPGKGLEWVSWISPSGGLTEYADSVKGRFTISRDNSKNTLYLQMNSLRAEDTAVYYCARASYGAWLDYWGQGTLVTVSS VL: DIQMTQSPSSLSLSPGERATLSCRASQSINRNLGWYQQKPGQAPRLLIYGASTRATGIPARFTGSGSGTEFSLTISSLQSEDYAIYYCQQYDNWPIIFGQGTRLEIKG ?
Outgoing: 914000 M⁻¹ s⁻¹
